# study_target: IDH1-R132H recombinant protein (Homo sapiens (Human), UniProt O75874, R132H)
# Sequence (O75874 whole entry R132H): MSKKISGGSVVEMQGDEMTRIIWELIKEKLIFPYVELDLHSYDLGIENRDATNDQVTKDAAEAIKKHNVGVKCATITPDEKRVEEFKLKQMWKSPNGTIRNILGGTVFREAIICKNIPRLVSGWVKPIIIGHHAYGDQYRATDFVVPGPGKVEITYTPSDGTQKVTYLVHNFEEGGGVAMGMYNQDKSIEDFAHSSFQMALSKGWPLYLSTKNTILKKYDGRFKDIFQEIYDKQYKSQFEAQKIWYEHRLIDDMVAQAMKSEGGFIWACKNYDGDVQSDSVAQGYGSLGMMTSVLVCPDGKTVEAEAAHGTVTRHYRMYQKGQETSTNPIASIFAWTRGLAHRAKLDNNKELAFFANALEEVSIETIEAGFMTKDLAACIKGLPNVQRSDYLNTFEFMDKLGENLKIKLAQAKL
# assay_method_text: IDH1-R132H enzymatic assay (inhibition of NADPH consumption, diaphorase/resazurin readout)
# recorded_conditions: read-out: Enzyme IDH1 R132H IC50 (Range)
pIC50: −log10 of the molar value.
quantity_name: pIC50

[
  {
    "molecule": "C[C@H](Nc1nccc(-c2ccnn2C2CCCCO2)n1)c1cc2cc(Cl)ccc2[nH]c1=O (some centres unmarked)",
    "study_target": "IDH1-R132H recombinant protein (Homo sapiens (Human), UniProt O75874, R132H)",
    "readout_value": "> 7.00"
  },
  {
    "molecule": "C[C@H](Nc1nccc(N2CCOC2=O)n1)c1cc2cc(Cl)ccc2[nH]c1=O",
    "study_target": "IDH1-R132H recombinant protein (Homo sapiens (Human), UniProt O75874, R132H)",
    "readout_value": "> 7.00"
  },
  {
    "molecule": "C[C@H](Nc1nccc(-c2cncn2CC(F)(F)F)n1)c1cc2cc(Cl)ccc2[nH]c1=O",
    "study_target": "IDH1-R132H recombinant protein (Homo sapiens (Human), UniProt O75874, R132H)",
    "readout_value": "> 7.00"
  },
  {
    "molecule": "Cc1ncn(-c2ccnc(N[C@@H](C)c3cc4cc(Cl)ccc4[nH]c3=O)n2)c1C",
    "study_target": "IDH1-R132H recombinant protein (Homo sapiens (Human), UniProt O75874, R132H)",
    "readout_value": "> 7.00"
  }
]

Value lookup for pIC50; key = C[C@H](Nc1nccc(C2(S(C)(=O)=O)CC2)n1)c1cc2cc(Cl)ccc2[nH]c1=O
6.00 to 7.00

Look up pIC50: COc1cc2[nH]c(=O)c(C(C)Nc3ncc(C#N)c(OC)n3)cc2cc1Cl (centres unmarked)
> 7.00

What value of pIC50 has been recorded for this entry: C[C@H](Nc1nccc(-n2nnnc2C2CC2)n1)c1cc2cc(Cl)ccc2[nH]c1=O
> 7.00

Return reported pIC50; argument: CNC(=O)Cc1ccnc(N[C@@H](C)c2cc3cc(Cl)ccc3[nH]c2=O)n1
6.00 to 7.00

Give its pIC50 value. Item: C[C@H](Nc1nccc(-n2cnc3c2CCC3)n1)c1cc2cc(Cl)ccc2[nH]c1=O
6.00 to 7.00

What value of measured pIC50 is listed for COc1ccccc1-c1ccnc(N[C@@H](C)c2cc3cc(Cl)ccc3[nH]c2=O)n1 ?
5.00 to 6.00

Report pIC50 for O=C1OCCN1c1ccnc(NCc2cc3cc(Cl)ccc3[nH]c2=O)n1 please.
6.00 to 7.00

What does the record list as pIC50 for CC(C)OC(=O)Nc1ccnc(N[C@@H](C)c2cc3cc(Cl)ccc3[nH]c2=O)n1 ?
5.00 to 6.00

If you can, please state the reported pIC50 value of C[C@H](Nc1ncc(C#N)c(=O)[nH]1)c1cc2cc(Cl)ccc2[nH]c1=O .
> 7.00

Name the reported pIC50 value associated with the molecule C[C@H](Nc1nccc(NS(C)(=O)=O)n1)c1cc2cc(Cl)ccc2[nH]c1=O
< 5.00

Fill in: pIC50 of C[C@H](Nc1nccc(NC(=O)C2CC2)n1)c1cc2cc(Cl)c(F)cc2[nH]c1=O is ___
6.00 to 7.00

For the molecule shown here, CC(c1ccnc(N[C@@H](C)c2cc3cc(Cl)ccc3[nH]c2=O)n1)S(C)(=O)=O (some centres unmarked) , give the reported pIC50.
5.00 to 6.00

Look at this molecule and give its reported pIC50. C[C@H](Nc1nccc(-c2cnn(C)c2)n1)c1cc2cc(Cl)ccc2[nH]c1=O
6.00 to 7.00

Recorded pIC50 for CC(C)[C@H]1COC(=O)N1c1ccnc(N[C@H](C)c2cc3cc(Cl)ccc3[nH]c2=O)n1 , please?
< 5.00

Name the reported pIC50 value associated with the molecule Cc1ccc2[nH]c(=O)c(CNc3nccc(N(C(C)C)S(C)(=O)=O)n3)cc2c1
5.00 to 6.00

Find the recorded pIC50 belonging to COc1cnccc1-c1ccnc(N[C@@H](C)c2cc3cc(Cl)ccc3[nH]c2=O)n1 and report it.
5.00 to 6.00

Can you share its pIC50? I mean this molecule: COc1cc2[nH]c(=O)c([C@@H](C)Nc3nccc(N4CCOC4=O)n3)cc2cc1Cl
< 5.00

Any idea what its pIC50 is? The molecule is Cc1ncccc1-c1ccnc(N[C@@H](C)c2cc3cc(Cl)ccc3[nH]c2=O)n1
6.00 to 7.00

What measured pIC50 goes with Cc1nc(N[C@@H](C)c2cc3cc(Cl)c(OCc4ccccn4)cc3[nH]c2=O)ncc1C#N ?
> 7.00

For the molecule shown here, CC(C)[C@H]1COCCN1c1ccnc(N[C@@H](C)c2cc3cc(Cl)ccc3[nH]c2=O)n1 , give the reported pIC50.
6.00 to 7.00

Dear colleague, I am looking for the recorded pIC50 of the following molecule: C[C@H](Nc1nccc(-c2cccnc2)n1)c1cc2cc(Cl)ccc2[nH]c1=O
6.00 to 7.00
